# Method Notes: Surface tension and critical micelle concentration of aqueous surfactant solutions
# Type: physicochemical
# Condition Set: Table 5; deionized water
Measured Property: CMC (ppm)

Molecule: O=C(O)C(F)(C(F)(F)F)C(F)(F)C(F)(F)C(F)(F)C(F)(F)C(F)(F)C(F)(F)C(F)(F)C(F)(F)F (stereo not drawn) [Example M24, C8 F17 CF(CF3)COO^- K^+]
Endpoint Value: 3000
//
Molecule: O=C(O)C(F)(C(F)(F)F)C(F)(F)C(F)(F)C(F)(F)C(F)(F)C(F)(F)C(F)(F)C(F)(F)F (stereo not drawn) [Example M30]
Endpoint Value: 3000
//
Molecule: O=C(O)C(F)(C(F)(F)F)C(F)(F)C(F)(F)C(F)(F)C(F)(F)C(F)(F)C(F)(F)F (stereo not drawn) [Example M22, C6 F13 CF(CF3)COO^- K^+]
Endpoint Value: 10000

----------
Listing: Surf. Tens. of selected molecules
# Method Notes: Surface tension and critical micelle concentration of aqueous surfactant solutions
# Type: physicochemical
# Condition Set: Table 5; at the CMC, deionized water

Molecule: O=C(O)C(F)(C(F)(F)F)C(F)(F)C(F)(F)C(F)(F)C(F)(F)C(F)(F)C(F)(F)F (stereo not drawn) [Example M22, C6 F13 CF(CF3)COO^- K^+]
Output Unit: dynes/cm
Surf. Tens.: 17.5
--
Molecule: O=C(O)C(F)(C(F)(F)F)C(F)(F)C(F)(F)C(F)(F)C(F)(F)C(F)(F)F (stereo not drawn) [Example M21, C5 F11 CF(CF3)COO^- K^+]
Output Unit: dynes/cm
Surf. Tens.: 22.5
--
Molecule: O=C(O)C(F)(C(F)(F)F)C(F)(F)C(F)(F)C(F)(F)C(F)(F)C(F)(F)C(F)(F)C(F)(F)F (stereo not drawn) [Example M27, C7 F15 CF(CF3)COO^- Li^+]
Output Unit: dynes/cm
Surf. Tens.: 24.1
--
Molecule: O=C(O)C(F)(C(F)(F)F)C(F)(F)C(F)(F)C(F)(F)C(F)(F)C(F)(F)F (stereo not drawn) [Example M15, C5 F11 CF(CF3)COO^- H4 N^+]
Output Unit: dynes/cm
Surf. Tens.: 22.1
--
Molecule: O=C(O)C(F)(C(F)(F)F)C(F)(F)C(F)(F)C(F)(F)C(F)(F)C(F)(F)C(F)(F)F (stereo not drawn) [Example M25, C6 F13 CF(CF3)COO^- Na^+]
Output Unit: dynes/cm
Surf. Tens.: 19.8
--
Molecule: O=C(O)C(F)(C(F)(F)F)C(F)(F)C(F)(F)C(F)(F)C(F)(F)C(F)(F)C(F)(F)C(F)(F)C(F)(F)C(F)(F)C(F)(F)F (stereo not drawn) [Example M18, C10 F21 CF(CF3)COO^- H4 N^+]
Output Unit: dynes/cm
Surf. Tens.: 14.8

----------
# Method Notes: Bacterial sludge contact test
# Condition Set: bacterial sludge; Day 7, with sludge
Measured Property: percent perfluoroolefin/perfluoromonohydride formed at 168 h, 1000 µM (%)

Compound: O=C(O)C(F)(C(F)(F)F)C(F)(F)C(F)(F)C(F)(F)C(F)(F)C(F)(F)C(F)(F)F (stereo not shown) [Example M16, C6 F13 CF(CF3)COO^- H4 N^+]
Endpoint Value: 23

----------
# Method Notes: Bacterial sludge contact test
# Condition Set: bacterial sludge; Day 1, with sludge
Measured Property: percent perfluoroolefin/perfluoromonohydride formed at 24 h, 1000 µM

Compound: O=C(O)C(F)(C(F)(F)F)C(F)(F)C(F)(F)C(F)(F)C(F)(F)C(F)(F)C(F)(F)F (stereo not shown) [Example M16, C6 F13 CF(CF3)COO^- H4 N^+]
Endpoint Value: 4%

----------
# Method Notes: Surface tension and critical micelle concentration of aqueous surfactant solutions
# Format: physicochemical
# Condition Set: Table 3; deionized water
Readings of CMC for the listed molecules

Molecule: C[N+](C)([O-])CCCNC(=O)C(F)(C(F)(F)F)C(F)(F)C(F)(F)C(F)(F)C(F)(F)C(F)(F)C(F)(F)F (stereo not drawn) [Example E3, C6 F13 CF(CF3)CONH(CH2)3 N^+ (CH3)2 O^-]
Output Unit: ppm
CMC: 100

Molecule: C[N+](C)(CCCN(CCC[N+](C)(C)CCC(=O)[O-])C(=O)C(F)(C(F)(F)F)C(F)(F)C(F)(F)C(F)(F)C(F)(F)C(F)(F)C(F)(F)C(F)(F)F)CCC(=O)[O-] (stereo not drawn) [Example K4]
Output Unit: ppm
CMC: 100

Molecule: C[N+](C)([O-])CCCNC(=O)C(F)(C(F)(F)F)C(F)(F)C(F)(F)C(F)(F)C(F)(F)C(F)(F)F (stereo not drawn) [Example E2, C5 F11 CF(CF3)CONH(CH2)3 N^+ (CH3)2 O^-]
Output Unit: ppm
CMC: 500

Molecule: C[N+](C)(CCCNC(=O)C(F)(C(F)(F)F)C(F)(F)C(F)(F)C(F)(F)C(F)(F)C(F)(F)C(F)(F)C(F)(F)F)CCC(=O)[O-] (stereo not drawn) [Example K1]
Output Unit: ppm
CMC: 125

Molecule: C[n+]1ccc(C(=O)NCCOC(=O)C(F)(C(F)(F)F)C(F)(F)C(F)(F)C(F)(F)C(F)(F)C(F)(F)C(F)(F)C(F)(F)F)cc1 (stereo not drawn) [Example F1]
Output Unit: ppm
CMC: 500

Molecule: C[N+](C)(CCO)CCCNC(=O)C(F)(C(F)(F)F)C(F)(F)C(F)(F)C(F)(F)C(F)(F)C(F)(F)C(F)(F)C(F)(F)F (stereo not drawn) [Example F4]
Output Unit: ppm
CMC: 300

The measured values listed here are drawn from patent US5998521A.
